test: NCI Yeast Anticancer Drug Screen. Data for the sgs1 mgt1 strain (AID 161);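 further: 0% = growth of cultures given vehicle only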; settings: S. cerevisiae sgs1 mgt1 strain, at 50.0 µM (retest, dose inferred, filed as 5.0), stronger effect = higher value
About 79,000 compounds went through this panel and 15% of them were active in at least one assay; those are over-represented in the sample as a whole.
Tag: 1 (yes) if measured growth inhibition is not below 90%, 0 (no) if it is.

compound | classification
CN1CCN(CC(C(=O)O)(c2ccccc2)c2ccccc2)CC1 | 0 (no)
COc1cc2c(oc(=O)c3cc(C)cc(OC)c32)c2c(C3OC(C)C(O)C(C)(O)C3O)ccc(O)c12 (stereo unspecified) | 1 (yes)
O=[N+]([O-])c1cccc(/C=N/Nc2ccc3ccccc3n2)c1O | 0 (no)
Oc1ccc(N(Cc2ccccc2)Cc2ccccc2)cc1 | 0 (no)
OCC1CCc2[nH]c3ccccc3c2C1 (stereo unspecified) | 0 (no)

Request: I'd appreciate it if you could say whether Cc1nc(N)sc1N=Nc1ccccc1Br has growth inhibition at least equal to 90%.
Response: 1 (yes)

Request: I'd appreciate it if you could say whether O=c1c2ccccc2[nH]c2c1[nH]c1ccccc12 has growth inhibition at least equal to 90%.
Response: 0 (no)

Request: I'd appreciate it if you could say whether Nc1ccc2c(c1)[nH]c(=O)c1cc(Cl)c(Cl)cc12 has growth inhibition at least equal to 90%.
Response: 0 (no)

Request: I'd appreciate it if you could say whether Cc1cc(Cl)ccc1Nc1sc(C(=O)c2cc3cc(Cl)ccc3o2)c(N)c1C#N has growth inhibition at least equal to 90%.
Response: 0 (no)

Request: I'd appreciate it if you could say whether S=C(C#Cc1ccccc1)Nc1ccccc1 has growth inhibition at least equal to 90%.
Response: 1 (yes)

###

experiment: NCI Yeast Anticancer Drug Screen. Data for the mec2-1 strain (AID 157); settings: S. cerevisiae mec2-1 strain, at 50.0 µM (retest, dose inferred, filed as 5.0)
The panel holds about 79,000 compounds, 15% with a hit somewhere; the sample as a whole holds those more often. The source made the active and inactive calls. Rule as the data show it: active = growth inhibition above about 70%; inactive = the rest.
// one of yes (active), no (inactive), no free text

compound | classification
O=C(O)C1CCc2ccc3ccccc3c2C1c1cccc2ccccc12 (configuration not stated) | yes
CC(=O)N1C(c2[nH]c3ccccc3c2-c2ccccc2)CCN1c1ccccc1 (configuration not stated) | no
O=C(Nc1cccc(C(F)(F)F)c1)c1cc(Br)cc(Br)c1O | yes

Request: // param item: COc1nc(NC2OC(CO)C(O)C(O)C2O)c(Cl)c(=O)[nH]1 (configuration not stated) ; yields the recorded call
Response: no

Request: // param item: OCC1OC(NC(=S)NCSCCC(F)(F)C(F)(F)C(F)(F)C(F)(F)C(F)(F)C(F)(F)F)C(O)C(O)C1O (configuration not stated) ; yields the recorded call
Response: no

Request: // param item: COc1ccc(C2=C(Cl)C(=O)N(c3ccc(O)cc3)C(=O)C2(Cl)Cl)cc1 ; yields the recorded call
Response: yes

###

Overview of recorded growth inhibition for various compounds
assay: NCI Yeast Anticancer Drug Screen. Data for the mec2-1 strain (AID 157); settings: S. cerevisiae mec2-1 strain, at 5.0 µM (retest, dose inferred, filed as 0.5), stronger effect = higher value
Compounds without any hit were thinned out: in the full panel of roughly 79,000, 15% have a hit.
Report the value in % with no unit label.

The compound listed as CCCCCNc1ccc2c(cc1=O)C(NC(C)=O)CCc1cc(OC)c(OC)c(OC)c1-2 (centres undefined) shows growth inhibition equal to 10
